# test description: qHTS of pediatric cancer cell lines to identify multiple opportunities for drug repurposing: Primary screen for NB1643 cells (AID 1347099); further: nearly all actives have a fitted effect of over 50% in size
# experimental parameters: NB1643 neuroblastoma viability, CellTiter-Glo luminescence, 48 h; series mostly up to 46 µM
Results filed as inconclusive are left out. Calls of active or inactive are those of the source. The call rests on the fitted dose curve; in most records, active means well fitted cell-killing curve with a large enough effect; inconclusive means small, poorly fitted or top-dose-only effect; inactive means no such curve, though single readings can be large or run the other way.
quantity: outcome

The following molecules have reported results that may help.
{"molecule": "CSc1ccc(/C=C2/C(C)=C(CC(=O)O)c3cc(F)ccc32)cc1", "experimental result": "inactive"}
{"molecule": "CCOC(=O)C(=O)c1csc(NC=O)n1", "experimental result": "inactive"}
{"molecule": "O=C1c2ccccc2CCc2ccccc21", "experimental result": "inactive"}
{"molecule": "CC(CC1c2ccccc2CCc2ccccc21)CN(C)C (configuration not stated)", "experimental result": "inactive"}

Could you share which outcome value was measured for `COc1ccc(-n2nc(CCC(=O)N(C)O)cc2-c2ccc(Cl)cc2)cc1` ?
inactive

Item: O=C(OCC(O)CO)c1ccccc1Nc1ccnc2c(C(F)(F)F)cccc12 (configuration not stated)
inactive

Item: `COc1ccc2cc(C=O)ccc2c1`
inactive

Item: `CN1CC(=O)N2[C@H](c3ccc4c(c3)OCO4)c3[nH]c4ccccc4c3C[C@@H]2C1=O`
inactive

Item: `CO/N=C(/C(=O)N[C@@H]1C(=O)N2C(C(=O)O)=C(Cn3nnc(C)n3)CS[C@H]12)c1csc(N)n1`
inactive

Item: `CC(=O)c1ccc(O)c(C(N)=O)c1`
inactive

Item: `CCC(=O)O[C@H]1[C@H](O[C@@H]2[C@@H](C)[C@H](O[C@H]3C[C@@](C)(OC)[C@@H](O)[C@H](C)O3)[C@@H](C)C(=O)O[C@H](CC)[C@@](C)(O)[C@H](O)[C@@H](C)C(=O)[C@H](C)C[C@@]2(C)O)O[C@H](C)C[C@@H]1N(C)C`
inactive

Item: `CCOc1c(N2CCOCC2)cnn(C)c1=O`
inactive

###

# test description: Quantitative high throughput screen for delayed death inhibitors of the malarial parasite plastid, 48 hour incubation (AID 488752); further: nearly all actives have a fitted effect of over 65% in size
# experimental parameters: Plasmodium falciparum growth; series mostly up to 28.7 µM
Inconclusive results are not listed. Calls of active or inactive are those of the source. The call rests on the fitted dose curve; in most records, active means well fitted inhibition curve with a large enough effect; inconclusive means small, poorly fitted or top-dose-only effect, or effect the other way; inactive means flat fitted curve, though single readings scatter.
quantity: outcome

The following compounds have reported results that may help.
{"entry smiles": "Brc1ccc([C@H]2CN3CCSC3=N2)cc1", "outcome": "inactive"}
{"entry smiles": "C[N+](C)(C)CCO", "outcome": "inactive"}
{"entry smiles": "O=C1NC(c2cccc([N+](=O)[O-])c2)=CCN1c1ccccc1O", "outcome": "inactive"}
{"entry smiles": "C[C@]12CCC(=O)C=C1CC[C@@H]1[C@@H]2[C@@H](O)C[C@@]2(C)[C@H]1CC[C@]2(O)C(=O)COC(=O)CCC(=O)O", "outcome": "inactive"}

Read the next record carefully.
Could you share which outcome value was measured for `COc1ccccc1N1CCN(CCN2C(=O)CC3(CCCC3)CC2=O)CC1` ?
inactive

###

# Tested on: Es-2
# test description: Primary qHTS to identify gynecologic anti-cancer compounds using libraries of approved drugs and bioactive compounds (AID 1345084); further: nearly all actives have a fitted effect of over 55% in size; further: potency means the concentration at half of the fitted maximal effect
# experimental parameters: Gynecologic cancer cell panel viability, ATPlite luminescence, 48 h; series mostly up to 57.5 µM
# From the text: National Center for Advancing Translational Sciences [NCATS] Assay Overview: Chemotherapeutic drug responses vary from cancer to cancer and from patient to patient. […] ATPlite is a luminescence based assay reliant on the conversion of a luciferase substrate to light in the presence of ATP. As a cytotoxic compound will suppress growth and decrease the number of cells, the concentration of ATP will decrease, and less light signal will be detected in the well. […]
Inconclusive results are not listed. Active and inactive are the calls of the source. Calls come from the whole dose curve; as a rule, active = well fitted cell-killing curve with a large enough effect; inconclusive = small, poorly fitted or top-dose-only effect, or effect the other way; inactive = flat fitted curve, though single readings scatter.
quantity: Potency

The following compounds have reported results that may help.
{"compound": "C[C@@H](C1=C(CCN(C)C)Cc2ccccc21)c1ccccn1", "Potency": "inactive"}
{"compound": "C[C@H](N)C(=O)N[C@@H](C)C(=O)NC1[C@H]2CN(c3nc4c(cc3F)c(=O)c(C(=O)O)cn4-c3ccc(F)cc3F)C[C@@H]12 (some centres not stated)", "Potency": "inactive"}
{"compound": "O=C(OCC(O)CO)c1ccccc1Nc1ccnc2c(C(F)(F)F)cccc12 (configuration not stated)", "Potency": "inactive"}
{"compound": "C1=CC2C3C=CC(C3)C2C1 (configuration not stated)", "Potency": "inactive"}
{"compound": "CCCCCCCCCCCCCC[N+](C)(C)C", "Potency": "14.1 µM (active)"}
{"compound": "Cn1c(=O)c2c(ncn2CC(=O)O)n(C)c1=O", "Potency": "inactive"}

Could you share which Potency value was measured for `Nc1nnnn1-c1ccccc1` ?
inactive

Item: `CCc1cc2cc(OC)c(OC)cc2c(Cc2ccccc2)n1`
inactive

Item: `Cc1c(N)cccc1C(F)(F)F`
inactive

Item: `CCc1cccc2c(CCO)c[nH]c12`
inactive

Item: `CN(C)c1cc2c(Nc3ccc4c(cnn4Cc4ccccc4)c3)ncnc2cn1`
inactive

Item: `O=C(OCC(COC(=O)c1cccnc1)(COC(=O)c1cccnc1)COC(=O)c1cccnc1)c1cccnc1`
inactive

Item: `CC1(C)OC(=O)Nc2ccc(Br)cc21`
inactive

Item: CCCCCOc1ccc(C2SC(=O)NC2=O)cc1OCC (configuration not stated)
inactive

Item: CC(=O)O[C@@H]1CC2C3CCc4cc(OC(=O)c5ccccc5)ccc4C3CCC2(C)[C@H]1OC(C)=O (some centres not stated)
inactive

Item: `O=C1[C@@H]2[C@H]3CC[C@H](C3)[C@@H]2C(=O)N1CCCCN1CCN(c2ncccn2)CC1`
inactive

Item: `CCOC(=O)OCC/C(SC(=O)OCC)=C(\C)N(C=O)Cc1cnc(C)nc1N`
inactive
